All values here come from the RNAGym collection of RNA variant scans (doi:10.1073/pnas.2313332121).

Documented polymerase ribozyme fitness (log ratio) across a set of variants
B1: TPR 5TU (parent)
chain: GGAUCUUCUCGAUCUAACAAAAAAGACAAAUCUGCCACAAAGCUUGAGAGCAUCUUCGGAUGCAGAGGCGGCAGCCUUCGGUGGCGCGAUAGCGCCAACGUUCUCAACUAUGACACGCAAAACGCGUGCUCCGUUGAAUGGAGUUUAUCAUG

Variants of: B1
Experiment: polymerase ribozyme fitness, log enrichment relative to wild type (log ratio); higher = more active; in vitro selection for triplet polymerase activity
Variants at the floor of the assay were thinned out.
// no unit string in output, number only

Answered examples (2):
Variant description | Value
G83U C129A | -4.02
C93A G141A | -1.74

Request: Reported polymerase ribozyme fitness (log ratio), variant C54A C85U C149G G152U : ____
Response: -4.15

Request: Reported polymerase ribozyme fitness (log ratio), variant A49U G50A : ____
Response: -0.047

Request: Reported polymerase ribozyme fitness (log ratio), variant A49U G59A A122U : ____
Response: -0.783

Request: Reported polymerase ribozyme fitness (log ratio), variant U61A C76A : ____
Response: -3.6

Request: Reported polymerase ribozyme fitness (log ratio), variant G48A A52G C116U : ____
Response: -0.319

Request: Reported polymerase ribozyme fitness (log ratio), variant C85U G92A G143U : ____
Response: -4.16

Request: Reported polymerase ribozyme fitness (log ratio), variant U55C G70A : ____
Response: -3.5

Request: Reported polymerase ribozyme fitness (log ratio), variant A19U G143U : ____
Response: -2.25

Request: Reported polymerase ribozyme fitness (log ratio), variant A60G G143U : ____
Response: -1.77

Request: Reported polymerase ribozyme fitness (log ratio), variant A40U C85U : ____
Response: -0.107

Request: Reported polymerase ribozyme fitness (log ratio), variant A24U C93U C118U A121G : ____
Response: -1.37

Request: Reported polymerase ribozyme fitness (log ratio), variant C27U C76U G83A : ____
Response: -1.55

Request: Reported polymerase ribozyme fitness (log ratio), variant A12G G48A C54U C85G G117U : ____
Response: -2.26

Request: Reported polymerase ribozyme fitness (log ratio), variant A40U C87U C105U G136U : ____
Response: -2.13

Request: Reported polymerase ribozyme fitness (log ratio), variant C85G C125A U144A : ____
Response: -3.57

Request: Reported polymerase ribozyme fitness (log ratio), variant A41C A52G G86U : ____
Response: -2.67

Request: Reported polymerase ribozyme fitness (log ratio), variant A19U C57G C96G C116G : ____
Response: -0.687

Request: Reported polymerase ribozyme fitness (log ratio), variant C38U C85U U146G : ____
Response: -0.571

Request: Reported polymerase ribozyme fitness (log ratio), variant C85A C129U : ____
Response: -0.397

Request: Reported polymerase ribozyme fitness (log ratio), variant U15C A21G A24U U53A : ____
Response: 0.983

Request: Reported polymerase ribozyme fitness (log ratio), variant A89G U134C : ____
Response: -0.372

Request: Reported polymerase ribozyme fitness (log ratio), variant U144A : ____
Response: -0.043
